- assay-procedure: In vitro human liver microsomal stability assay
- Type: in vitro ADME
- test-conditions: human liver microsomes
metric-name: % Parent Remaining at 30 min

| smiles-text | metric-name | result-value |
| --- | --- | --- |
| Cc1cccc(F)c1C1(O)CCN(C(=O)c2csc(-c3cn[nH]c3)c2)CC1 | % Parent Remaining at 30 min | +++ (61-100% +++) |
| O=C(c1csc(-c2cn[nH]c2)c1)N1CCC(c2ccccc2C(F)(F)F)CC1 | % Parent Remaining at 30 min | +++ (61-100% +++) |
